Reference for the values: paper PMC4030725

# target of assay: BCRP (Homo sapiens, UniProt Q9UNQ0)
# Sequence (Q9UNQ0 whole entry): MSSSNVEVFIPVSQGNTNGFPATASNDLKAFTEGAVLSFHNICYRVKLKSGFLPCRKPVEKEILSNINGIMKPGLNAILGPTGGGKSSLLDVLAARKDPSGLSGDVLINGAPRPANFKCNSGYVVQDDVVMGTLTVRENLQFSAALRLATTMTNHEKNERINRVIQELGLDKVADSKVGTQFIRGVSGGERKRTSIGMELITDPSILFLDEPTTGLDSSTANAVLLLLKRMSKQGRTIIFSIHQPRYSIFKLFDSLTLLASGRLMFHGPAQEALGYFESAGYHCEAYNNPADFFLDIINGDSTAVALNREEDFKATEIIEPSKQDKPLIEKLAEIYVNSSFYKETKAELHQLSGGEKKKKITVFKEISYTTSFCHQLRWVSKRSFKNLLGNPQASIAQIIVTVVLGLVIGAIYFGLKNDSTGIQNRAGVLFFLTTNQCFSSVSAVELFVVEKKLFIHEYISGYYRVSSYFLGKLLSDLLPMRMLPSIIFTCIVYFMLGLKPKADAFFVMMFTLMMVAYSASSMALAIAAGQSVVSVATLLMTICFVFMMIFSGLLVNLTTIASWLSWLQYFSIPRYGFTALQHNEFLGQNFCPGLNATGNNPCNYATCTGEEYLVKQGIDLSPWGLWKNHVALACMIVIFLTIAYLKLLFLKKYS
# assay: BCRP-mediated efflux of flavone glucuronides from HeLa-UGT1A9 cells
# Format: in vitro ADME
# reported conditions: BCRP-mediated glucuronide efflux, HeLa-UGT1A9 cells
quantity kind: Vmax (pmol/mg/min)

For orientation, consider the following solved cases.
O=C(O)[C@H]1O[C@@H](Oc2c(-c3ccccc3)oc3ccccc3c2=O)[C@H](O)[C@@H](O)[C@@H]1O | 165.6
O=C(O)[C@H]1O[C@@H](Oc2c(-c3ccccc3)oc3cccc(O)c3c2=O)[C@H](O)[C@@H](O)[C@@H]1O | 67.3

[A] O=C(O)[C@H]1O[C@@H](Oc2cccc3oc(-c4ccccc4)cc(=O)c23)[C@H](O)[C@@H](O)[C@@H]1O
[B] O=C(O)[C@H]1O[C@@H](Oc2c(-c3ccc(O)cc3)oc3ccccc3c2=O)[C@H](O)[C@@H](O)[C@@H]1O
Query: Consider A and B . Which of these has its Vmax at a higher number? State your choice using its label.
Result: A

* * *

# target of assay: BCRP (Homo sapiens)
# assay: BCRP-mediated efflux of flavone glucuronides from HeLa-UGT1A9 cells
# Assay type: in vitro ADME
# reported conditions: BCRP-mediated glucuronide efflux, HeLa-UGT1A9 cells
quantity kind: Log(CLint)

For orientation, consider the following solved cases.
O=C(O)[C@H]1O[C@@H](Oc2c(-c3ccccc3)oc3cccc(O)c3c2=O)[C@H](O)[C@@H](O)[C@@H]1O | 0.72
O=C(O)[C@H]1O[C@@H](Oc2cccc3oc(-c4ccccc4)cc(=O)c23)[C@H](O)[C@@H](O)[C@@H]1O | 0.77

[P] O=C(O)[C@H]1O[C@@H](Oc2c(-c3ccc(O)cc3)oc3ccccc3c2=O)[C@H](O)[C@@H](O)[C@@H]1O
[Q] O=C(O)[C@H]1O[C@@H](Oc2c(-c3ccccc3)oc3ccccc3c2=O)[C@H](O)[C@@H](O)[C@@H]1O
Query: Consider P and Q . Which of these has its Log(CLint) at a higher number? State your choice using its label.
Result: Q
(Q: 1.23, P: 0.38)

* * *

# Tested on: HeLa-UGT1A9 cells
# Format: in vitro ADME, human
# reported conditions: loading aglycone concentration 10 μM, end of experiment
quantity kind: Intracellular Con. of HFs-G or DHFs-3-O-G (µM)

O=C(O)[C@H]1O[C@@H](Oc2c(-c3ccccc3)oc3ccccc3c2=O)[C@H](O)[C@@H](O)[C@@H]1O | 335.57

[A] O=C(O)[C@H]1O[C@@H](Oc2c(-c3ccc(O)cc3)oc3ccccc3c2=O)[C@H](O)[C@@H](O)[C@@H]1O
[B] O=C(O)[C@H]1O[C@@H](Oc2c(-c3ccccc3)oc3cccc(O)c3c2=O)[C@H](O)[C@@H](O)[C@@H]1O
[C] O=C(O)[C@H]1O[C@@H](Oc2cccc3oc(-c4ccccc4)cc(=O)c23)[C@H](O)[C@@H](O)[C@@H]1O
Query: I would appreciate it if you could sort these 3 compounds by Intracellular Con. of HFs-G or DHFs-3-O-G, starting from the smallest number. Response field: labels, in requested order.
Result: C, B, A
